- Method Description: folding stability dG unfold (combined trypsin and chymotrypsin); higher = more stable
Reported Metric: folding stability dG unfold (kcal/mol)
Respond numerically; units are kcal/mol and should not be typed.

Worked cases, answers included:
SAGRKIPIMFTWPNGDPERMEEIAIEFANYLQPNGLPNVTIKIERKPVKDPENGKRRYVYMVTIEVQPPSAG [r5_49_TrROS] | 2.44
SMTIERHPDKLTVRVPAAFSTVPEVVRFLKELGFELPPGVKDVRVEDVEPGARVVRVTVHFDDPEALERLSA [r9_820_TrMRF] | 1.81
SAGMEVKVETVTIEIEVDGKKIEIKVVRVEVRNEDGSIYEFTFIEITVPEDVSEEELRKLLEELGLEPESAG [r5_486_TrROS_Hall] | 3.77

Please look up its folding stability dG unfold: SAGGSAGGSAGAYSATPVEERRLPDGSTLVRERVTDPATGTPALREVLVTDEGVEERLLPSAGGSAGGSAGG [r11_991_JUSTAS]
-0.458
